Can you tell me -log Kd for the items I'm about to list?
- testedTarget: T1, HLA-A2 molecule (product of the HLA-A*0201 gene) on JY cells (human)
- T1 construct: MHC class I molecule on cells; Emptied by acid treatment (pH 3.8, 30 s), then reassociated with added purified beta2m and the test peptide; also called HLA-A*0201 molecule; human HLA-A2 molecule
- assayExplanation: reassociation on acid-stripped JY cells with added beta2m, mAb BB7.2 staining, flow cytometry

State the recorded -log Kd for this entry: NLYQMTSQL [HLA-A2-binding peptide of SEQ ID NO 44 (WT1 peptide, SEQ NAME 225)]
5.83 -log Kd (Kd in molar concentration)

Can you look up the measured -log Kd of NMTKLQLAL (also called NMTKLQLAL) [HLA-A2-binding peptide of SEQ ID NO 49 (WT1 peptide, SEQ NAME 441)] for me?
5.43 -log Kd (Kd in molar concentration)

Sample NLGATLKGV [HLA-A2-binding peptide of SEQ ID NO 31 (WT1 peptide, SEQ NAME 242)] — what was its -log Kd?
5.09 -log Kd (Kd in molar concentration)

For VAAGSSSSV [HLA-A2-binding peptide of SEQ ID NO 43 (WT1 peptide, SEQ NAME 250)] , what is its reported -log Kd?
5 -log Kd (Kd in molar concentration)

Query (binder): ALLLRTPYS [HLA-A2-binding peptide of SEQ ID NO 38 (WT1 peptide, SEQ NAME 214)] ; field requested: -log Kd
5.33 -log Kd (Kd in molar concentration)

Look up -log Kd: GVFRGIQDV [HLA-A2-binding peptide of SEQ ID NO 51 (WT1 peptide, SEQ NAME 292)]
5.85 -log Kd (Kd in molar concentration)

Recorded -log Kd of QQYSVPPPV [HLA-A2-binding peptide of SEQ ID NO 39 (WT1 peptide, SEQ NAME 191)] , please.
5.49 -log Kd (Kd in molar concentration)

Fill in: -log Kd of ILCGAQYRI (also called ILOGAQYRI) [HLA-A2-binding peptide of SEQ ID NO 40 (WT1 peptide, SEQ NAME 280)] is ___
5.12 -log Kd (Kd in molar concentration)

Name the recorded -log Kd for ALLPAVPSL [HLA-A2-binding peptide of SEQ ID NO 33 (WT1 peptide, SEQ NAME 10)] .
7.84 -log Kd (Kd in molar concentration)
